Origin of values: the kinase profiling compilation of Christmann-Franck et al. (2016)

Quick list: kinase still bound, per cent of control per entry.
- assayed-system: LTK (human) (UniProt P29376)
- Sequence (P29376 whole entry, looked up): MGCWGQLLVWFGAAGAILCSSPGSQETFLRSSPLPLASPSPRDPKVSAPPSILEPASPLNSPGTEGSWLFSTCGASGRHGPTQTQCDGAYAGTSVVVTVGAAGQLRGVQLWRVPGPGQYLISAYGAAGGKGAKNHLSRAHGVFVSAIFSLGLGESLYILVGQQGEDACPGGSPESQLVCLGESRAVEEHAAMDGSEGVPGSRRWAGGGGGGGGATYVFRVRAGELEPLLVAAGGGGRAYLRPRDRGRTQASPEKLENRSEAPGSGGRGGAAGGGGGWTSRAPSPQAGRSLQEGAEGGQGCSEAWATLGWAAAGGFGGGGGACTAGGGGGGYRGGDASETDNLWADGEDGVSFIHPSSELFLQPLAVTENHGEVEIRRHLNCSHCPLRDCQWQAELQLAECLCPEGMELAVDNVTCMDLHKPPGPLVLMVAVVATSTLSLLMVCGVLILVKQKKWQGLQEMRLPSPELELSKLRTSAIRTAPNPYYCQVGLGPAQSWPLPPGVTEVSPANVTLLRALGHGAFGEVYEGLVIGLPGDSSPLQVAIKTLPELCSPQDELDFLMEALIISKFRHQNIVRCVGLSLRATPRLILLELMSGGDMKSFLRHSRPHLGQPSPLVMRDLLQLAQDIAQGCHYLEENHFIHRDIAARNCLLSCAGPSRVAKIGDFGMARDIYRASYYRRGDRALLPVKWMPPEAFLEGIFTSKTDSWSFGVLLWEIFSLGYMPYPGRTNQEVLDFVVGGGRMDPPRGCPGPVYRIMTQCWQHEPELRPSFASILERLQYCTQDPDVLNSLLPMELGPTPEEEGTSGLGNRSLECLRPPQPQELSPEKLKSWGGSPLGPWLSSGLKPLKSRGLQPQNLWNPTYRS
- protocol-details: KINOMEscan competition binding
- test-context: compound 10.0 µM
Give the value; after it, write the unit.

COc1cc(N2CCC(N3CCN(C)CC3)CC2)ccc1Nc1ncc(Cl)c(Nc2ccccc2S(=O)(=O)C(C)C)n1 = 0%
CCOc1cc(N2CCC(N3CCCCC3)CC2)ccc1Nc1nc(Nc2ccccc2S(=O)(=O)C(C)C)c2cn[nH]c2n1 = 1.7%
CCN1CCN(Cc2ccc(NC(=O)c3ccc(C)c(/C=C/c4cnc(Nc5cc(N6CCNCC6)nc(C)n5)cn4)c3)cc2C(F)(F)F)CC1 = 100%

Turning to the following compound.
Considering CCN1CCN(Cc2ccc(NC(=O)c3ccc(C)c(Oc4ccnc5[nH]ccc45)c3)cc2C(F)(F)F)CC1 , its kinase still bound, per cent of control with LTK (human) (UniProt P29376) was recorded as 1.2%
